# assay_comment: Kinetic solubility of potassium salt Compound I-2 (further research)
# Assay type: physicochemical
# details: water; 25° C.
Residues, ends and D or L forms follow the SMILES beside them. *: point of attachment. Palmitoyl = CCCCCCCCCCCCCCCC(=O)*
outcome_measure: solubility kinetic

State its solubility kinetic for this compound: CCCCCCCCCCCCCCCC(=O)N1CCC[C@H]1C(=O)N1CCC[C@H]1C(=O)NCC(=O)N[C@@H](Cc1ccc(O)cc1)C(=O)[O-].[K+] [Compound I-2] (Palmitoyl-PPGY-OH)
166 to 200 mg/mL

---

# assay_comment: Approximate solubility of Compound I-1 (amorphous) in different solvents (manual dilution, visual observation)
# Format: physicochemical
# details: Acetonitrile, ambient laboratory temperature
Residues, ends and D or L forms follow the SMILES beside them. *: point of attachment. Palmitoyl = CCCCCCCCCCCCCCCC(=O)*
outcome_measure: solubility

State its solubility for this compound: CCCCCCCCCCCCCCCC(=O)N1CCC[C@H]1C(=O)N1CCC[C@H]1C(=O)NCC(=O)N[C@@H](Cc1ccc(O)cc1)C(=O)[O-].[Na+] [Compound I-1 (Amorphous)] (Palmitoyl-PPGY-OH)
< 1000 µg/mL

---

# assay_comment: Approximate solubility of Compound I-2 (amorphous) at room temperature
# Format: physicochemical
# details: Acetone: H2O (97:3)
Residues, ends and D or L forms follow the SMILES beside them. *: point of attachment. Palmitoyl = CCCCCCCCCCCCCCCC(=O)*
outcome_measure: solubility

State its solubility for this compound: CCCCCCCCCCCCCCCC(=O)N1CCC[C@H]1C(=O)N1CCC[C@H]1C(=O)NCC(=O)N[C@@H](Cc1ccc(O)cc1)C(=O)[O-].[K+] [Compound I-2 (amorphous)] (Palmitoyl-PPGY-OH)
< 1000 µg/mL

---

# assay_comment: Aqueous solubility of Compound I-1 in the presence of excipients
# Type: physicochemical
# details: water with Meglumine 2% (w/v); approximate solubility by visual observation
Residues, ends and D or L forms follow the SMILES beside them. *: point of attachment. Palmitoyl = CCCCCCCCCCCCCCCC(=O)*
outcome_measure: solubility

State its solubility for this compound: CCCCCCCCCCCCCCCC(=O)N1CCC[C@H]1C(=O)N1CCC[C@H]1C(=O)NCC(=O)N[C@@H](Cc1ccc(O)cc1)C(=O)[O-].[Na+] [Compound I-1] (Palmitoyl-PPGY-OH)
> 250 mg/mL

---

# assay_comment: Approximate solubility of Compound I-1-Acid in different solvents (manual dilution, visual observation)
# Type: physicochemical
# details: Isopropyl alcohol; room temperature
# Description: The solubility test was conducted by manual dilution combined with visual observation. As shown below, Compound I-1-Acid has poor solubility (<1 mg/mL) in most organic solvents and water (Table 1).
Residues, ends and D or L forms follow the SMILES beside them. *: point of attachment. Palmitoyl = CCCCCCCCCCCCCCCC(=O)*
outcome_measure: solubility

State its solubility for this compound: CCCCCCCCCCCCCCCC(=O)N1CCC[C@H]1C(=O)N1CCC[C@H]1C(=O)NCC(=O)N[C@@H](Cc1ccc(O)cc1)C(=O)O [Compound I-1-Acid] (Palmitoyl-PPGY-OH)
< 1000 µg/mL

---

# assay_comment: Approximate solubility of Compound I-1-Acid in different solvents (manual dilution, visual observation)
# Format: physicochemical
# details: Acetone-H2O (1:2); room temperature
Residues, ends and D or L forms follow the SMILES beside them. *: point of attachment. Palmitoyl = CCCCCCCCCCCCCCCC(=O)*
outcome_measure: solubility

State its solubility for this compound: CCCCCCCCCCCCCCCC(=O)N1CCC[C@H]1C(=O)N1CCC[C@H]1C(=O)NCC(=O)N[C@@H](Cc1ccc(O)cc1)C(=O)O [Compound I-1-Acid] (Palmitoyl-PPGY-OH)
< 1000 µg/mL
